Assay: Pharmacokinetics in rats after intragastric and intravenous administration
Format: in vivo, rat
Settings: rat, plasma, po, gavage 10 mg/kg

# Compound, Unit of measurement, AUC(0-inf)
measured = [
    ("CCc1ccc(Cc2cc3c(cc2Cl)CO[C@]32O[C@H](C)[C@@H](O)[C@H](O)[C@H]2O)s1", "ng·h/mL", 1350),
]

###

Target: human sodium-glucose cotransporter 2 (SGLT2) (Homo sapiens)
Construct: expressed in transfected cells; host or cells: NIH3T3 (mouse fibroblast) cells expressing hSGLT2
Sequence (P31639 1-672): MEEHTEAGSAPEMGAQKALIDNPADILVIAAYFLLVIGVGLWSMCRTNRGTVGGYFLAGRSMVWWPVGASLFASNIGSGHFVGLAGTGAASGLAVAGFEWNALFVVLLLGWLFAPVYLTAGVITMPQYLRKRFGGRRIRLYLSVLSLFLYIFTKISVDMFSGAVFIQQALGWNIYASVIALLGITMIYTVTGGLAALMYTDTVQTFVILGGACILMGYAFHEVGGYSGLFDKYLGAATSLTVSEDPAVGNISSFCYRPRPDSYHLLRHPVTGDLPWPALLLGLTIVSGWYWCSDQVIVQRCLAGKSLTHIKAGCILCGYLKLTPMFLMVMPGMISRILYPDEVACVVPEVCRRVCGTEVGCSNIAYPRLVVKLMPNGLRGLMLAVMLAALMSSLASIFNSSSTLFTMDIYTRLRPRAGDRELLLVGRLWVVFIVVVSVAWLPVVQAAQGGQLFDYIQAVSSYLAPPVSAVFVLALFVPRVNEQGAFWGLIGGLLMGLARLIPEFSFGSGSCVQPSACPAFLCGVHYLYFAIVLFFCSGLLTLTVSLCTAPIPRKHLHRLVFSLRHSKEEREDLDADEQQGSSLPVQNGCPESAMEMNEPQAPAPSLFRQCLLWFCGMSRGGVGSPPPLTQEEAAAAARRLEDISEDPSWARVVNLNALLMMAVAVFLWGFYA
Experiment: In vitro SGLT2 inhibition, methyl-α-D-[U-14C]glucopyranoside uptake in NIH3T3-hSGLT2 cells
Type: cell-based
Details: SGLT2, 100 nM; read-out: % Inhibition rate ± SD 100 nM
Classify by measured inhibition at 0.1 µM: True if it is equal to or exceeds 50%, False if it is smaller.

# Compound, Label
data = [
    ("CCc1ccc(C(=O)c2cc3c(cc2Cl)CO[C@]32O[C@H](C)[C@@H](O)[C@H](O)[C@H]2O)s1", "False"),
    ("CCCc1ccc(Cc2ccc3c(c2)[C@]2(OC3)O[C@H](C)[C@@H](O)[C@H](O)[C@H]2O)cc1", "False"),
    ("CCCc1ccc(Cc2ccc3c(c2)[C@]2(OC3)O[C@H](C)[C@@H](O)[C@H](O)[C@H]2O)s1", "True"),
]

Sourced from patent US10550143B2
